Test system: Female SD rats
Experiment: Inhibitory effect of compound on sulprostone-induced bladder contraction
Type: in vivo, rat
Details: urethane-anesthetized female SD rats; sulprostone 0.3 mg/kg s.c.; test agent 1.0 mg/kg intravenously; 15 minutes after administration
Entries annotated with measured Bladder Contraction Inhibition Rate (%) 15 minutes
Report only the number, with the unit % understood.

These solved cases illustrate the format of a correct answer.
- MOLECULE: "COc1ccc2c(c1)cc(-c1ccccc1)n2Cc1cccc(-c2nnn[nH]2)n1 [Example 2-1]"
  MEAS_VALUE: 73.2
- MOLECULE: "CCS(=O)(=O)NC(=O)c1cccc(Cn2c(-c3ccccc3)cc3cc(OC)c(Cl)cc32)n1 [Example 1-6]"
  MEAS_VALUE: 70.0
- MOLECULE: "COc1ccc2c(c1)cc(-c1ccccc1)n2Cc1cccc(C(=O)NS(C)(=O)=O)n1 [Example 1-1]"
  MEAS_VALUE: 67.3

Reading of Bladder Contraction Inhibition Rate (%) 15 minutes for COc1ccc2c(c1)cc(C1(C)CC1)n2Cc1cccc(-c2nnn[nH]2)n1 [Example 5-5] with Female SD rats: 85.3

* * *

Target: UniProt:P70597
Experiment: Test for confirmation of EP1 receptor antagonism: inhibition of prostaglandin E2-induced increase in intracellular calcium concentration in rat EP1 receptor-expressing COS-1 cells
Settings: prostaglandin E2 10 nM, intracellular calcium fluorescence signal
Entries annotated with measured IC50
Report only the number, with the unit nM understood.

CCC(C)c1cc2cc(OC)ccc2n1Cc1cccc(C(=O)NS(=O)(=O)C2CC2)n1 (stereo not shown) [Example 4-18] has a reported IC50 of 31

CCCS(=O)(=O)NC(=O)c1cccc(Cn2c(-c3ccccc3)cc3cc(OC)c(F)cc32)n1 [Example 4-22] has a reported IC50 of 59

CCS(=O)(=O)NC(=O)c1cccc(Cn2c(-c3ccccc3)cc3cc(OC)ccc32)n1 [Example 1-12] has a reported IC50 of 81

COc1cc2cc(-c3ccsc3)n(Cc3cccc(-c4nnn[nH]4)n3)c2cc1F [Example 2-4] has a reported IC50 of 32

* * *

Entries annotated with measured IC50
Target: rat EP1 receptor (Rattus norvegicus, UniProt P70597)
Sequence (P70597 whole entry): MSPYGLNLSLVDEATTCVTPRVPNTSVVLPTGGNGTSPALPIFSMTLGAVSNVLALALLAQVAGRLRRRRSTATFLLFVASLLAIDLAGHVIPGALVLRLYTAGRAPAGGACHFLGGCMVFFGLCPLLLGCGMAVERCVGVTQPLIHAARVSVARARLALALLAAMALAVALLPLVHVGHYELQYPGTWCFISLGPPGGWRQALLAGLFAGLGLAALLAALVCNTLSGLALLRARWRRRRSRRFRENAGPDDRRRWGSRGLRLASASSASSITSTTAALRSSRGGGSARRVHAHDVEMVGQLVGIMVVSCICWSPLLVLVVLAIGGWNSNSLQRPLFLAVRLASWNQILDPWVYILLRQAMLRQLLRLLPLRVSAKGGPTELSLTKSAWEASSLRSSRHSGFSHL
Experiment: Test for confirmation of EP1 receptor antagonism: inhibition of prostaglandin E2-induced increase in intracellular calcium concentration in rat EP1 receptor-expressing COS-1 cells
Conditions: prostaglandin E2 10 nM, intracellular calcium fluorescence signal
Report only the number, with the unit nM understood.

Reading of IC50 for COc1cc2cc(-c3ccccc3)n(Cc3cccc(-c4noc(=O)[nH]4)n3)c2cc1F with rat EP1 receptor (Rattus norvegicus, UniProt P70597): 22

Reading of IC50 for COc1cc2cc(-c3ccccc3)n(Cc3cccc(-c4nnn[nH]4)n3)c2cc1F with rat EP1 receptor (Rattus norvegicus, UniProt P70597): 31

Reading of IC50 for COc1cc2cc(-c3ccccc3)n(Cc3cccc(C(=O)NC#N)n3)c2cc1F with rat EP1 receptor (Rattus norvegicus, UniProt P70597): 97

Reading of IC50 for CCS(=O)(=O)NC(=O)c1cccc(Cn2c(-c3ccccc3)cc3cc(OC)c(Cl)cc32)n1 with rat EP1 receptor (Rattus norvegicus, UniProt P70597): 19

Reading of IC50 for COc1cc2cc(-c3ccccc3)n(Cc3cccc(-c4nnn[nH]4)n3)c2cc1Cl with rat EP1 receptor (Rattus norvegicus, UniProt P70597): 67

Reading of IC50 for COc1ccc2c(c1)cc(C1(C)CC1)n2Cc1ccc(-c2nnn[nH]2)o1 with rat EP1 receptor (Rattus norvegicus, UniProt P70597): 64

Reading of IC50 for COc1cc2cc(-c3ccccc3)n(Cc3cccc(C(=O)NS(C)(=O)=O)n3)c2cc1F with rat EP1 receptor (Rattus norvegicus, UniProt P70597): 60

Reading of IC50 for CCC(C)c1cc2cc(OC)ccc2n1Cc1cccc(C(=O)NS(=O)(=O)CC)n1 (centres unmarked) with rat EP1 receptor (Rattus norvegicus, UniProt P70597): 46

Reading of IC50 for COc1ccc2c(c1)cc(C1(C)CC1)n2Cc1cccc(-c2nnn[nH]2)n1 with rat EP1 receptor (Rattus norvegicus, UniProt P70597): 24

Reading of IC50 for CCCS(=O)(=O)NC(=O)c1cccc(Cn2c(C(C)CC)cc3cc(OC)ccc32)n1 (centres unmarked) with rat EP1 receptor (Rattus norvegicus, UniProt P70597): 43

Reading of IC50 for CCC(C)c1cc2cc(OC)ccc2n1Cc1cccc(-c2nnn[nH]2)n1 (centres unmarked) with rat EP1 receptor (Rattus norvegicus, UniProt P70597): 23
